This collection of values is drawn from PubChem BioAssay (NCI).

- Tested on: NCI-H522 lung
- ASSAY NAME: NCI-60 one-dose screen, 48 h (100 = growth as untreated, 0 = no growth, -100 = all killed)
- MEASUREMENT CONTEXT: 10 µM unless noted
About 83,000 compounds went through this panel and 20% of them were active in at least one assay; those are over-represented in the sample as a whole.
READOUT: growth (%)
Report as a plain number; the unit % is understood.

O=C(OC(OC(=O)c1cc(Cl)cc(Cl)c1)c1cccc2ccccc12)c1ccccc1 (stereo not drawn)    80.4
COc1cc(-c2cc(=O)oc3cc(O)ccc23)c(OC)c2c1OCO2    81.7

Here is the next item to consider.
With NCI-H522 lung as the test system, Cc1ccc(-c2c(Br)c(OC(=O)CO[C@@H]3C[C@H](C)CC[C@H]3C(C)C)c(-c3ccc(C)cc3C)c(Br)c2OC(=O)CO[C@H]2C[C@@H](C)CC[C@@H]2C(C)C)c(C)c1 showed growth of 79.4

* * *

- Tested on: K-562 leukemia
- ASSAY NAME: NCI-60 one-dose screen, 48 h (100 = growth as untreated, 0 = no growth, -100 = all killed)
- MEASUREMENT CONTEXT: 10 µM unless noted
Compounds without any hit were thinned out: in the full panel of roughly 83,000, 20% have a hit.
# growth per entry
Report as a plain number; the unit % is understood.

Reference set, count: 4
CC(=O)c1c[nH]c2ccc(-c3ccnc(Nc4ccc(NC(=O)c5cccc(F)c5)c(CN5CCOCC5)c4)n3)cc12    4.68
COc1ccc2c(/C=C3/C(=O)NC(=S)NC3C)cc(=O)oc2c1 (stereo not given)    98.1
c1ccc2c(-c3c4ccsc4cc4[nH]c5ccccc5c34)c[nH]c2c1    16
COc1ccccc1N1CCN(C(=O)c2ccc3nc(NC(=O)c4ccc(NCCc5ccccc5)c([N+](=O)[O-])c4)sc3c2)CC1    86

What the record says about COc1cc2nc(-c3ccc(C(F)(F)F)cc3)cc(OCCN3CCC(O)CC3)c2cc1OC : growth is 61.3

* * *

- System: HOP-92 NSCLC
- ASSAY NAME: NCI-60 one-dose screen, 48 h
- MEASUREMENT CONTEXT: 10 µM unless noted
About 83,000 compounds went through this panel and 20% of them were active in at least one assay; those are over-represented in the sample as a whole. Calls of active or inactive are those of the source. Rule for the calls: active = growth percent below 10; inactive = the rest.
Bench note: report the call from active, inactive

Problem: Write down the call the test reported for this molecule. Item: NS(=O)(=O)c1cccc(NC(=O)C(=O)C2C(=O)Nc3ccccc32)c1 (stereo not given)
Result: inactive

Problem: Write down the call the test reported for this molecule. Item: CC(Oc1ccc(C(=O)NS(=O)(=O)C(C)(C)C)cc1C(F)(F)F)c1ccc(Oc2ccccc2)cn1 (stereo not given)
Result: inactive

Problem: Write down the call the test reported for this molecule. Item: COC(=O)CCCCCCCCC1(C)C=CC(C(C)O)=CC1 (stereo not given)
Result: inactive

Problem: Write down the call the test reported for this molecule. Item: O=c1[nH]nc(-c2ccc(Br)cc2)cc1Cc1ccc(O)cc1
Result: inactive

Problem: Write down the call the test reported for this molecule. Item: CN(C)c1ccc(-c2c(C#N)c(N)n3nc(N)c(C#N)c3c2C#N)cc1
Result: inactive

Problem: Write down the call the test reported for this molecule. Item: Cc1[nH]c(C(=O)Nc2ccccc2OCc2cccc(C(=O)NCCN)c2)c(Cl)c1Cl
Result: inactive
